# credit: the supplement of paper PMC11061612

Item-by-item account of Bliss excess
# System: NCI-H1581 (Non-Small Cell Lung Carcinoma);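 note: after 72 h of two-drug dosing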
# test-summary: Bliss excess, mean over the matrix (fraction); higher = more synergy

compound	Bliss excess
Cc1cc2ncnn2cc1Nc1ncc2c(n1)n(C1CCOCC1)c(=O)n2C [AZD7648] + CCN(CCO)CCCOc1ccc2c(Nc3cc(CC(=O)Nc4cccc(F)c4)[nH]n3)ncnc2c1 [AZD2811] (first compound max 10 µM, 7x7, partner max 1 µM)	0.0122
C[C@@H](Oc1cc(-c2cnn(C3CCNCC3)c2)cnc1N)c1c(Cl)ccc(F)c1Cl [Crizotinib] + Cn1cnc2c(F)c(Nc3ccc(Br)cc3Cl)c(C(=O)NOCCO)cc21 [Selumetinib] (first compound max 10 µM, 7x7, partner max 10 µM)	0.0228
C[C@@H](c1ccc2nccn2c1)n1nnc2ncc(-c3cnn(C)c3)nc21 [Savolitinib] + CC1(C)CCC(CN2CCN(c3ccc(C(=O)NS(=O)(=O)c4ccc(NCC5CCOCC5)c([N+](=O)[O-])c4)c(Oc4cnc5[nH]ccc5c4)c3)CC2)=C(c2ccc(Cl)cc2)C1 [Venetoclax] (first compound max 1 µM, 7x7, partner max 1 µM)	-0.0697
C[C@@H](Nc1cc(F)cc(F)c1)c1cc(C(=O)N(C)C)cc2c(=O)cc(N3CCOCC3)oc12 [AZD8186] + CC(=O)c1c(C)c2cnc(Nc3ccc(N4CCNCC4)cn3)nc2n(C2CCCC2)c1=O [Palbociclib] (first compound max 10 µM, 7x7, partner max 10 µM)	0.085
NC1(C(=O)N[C@@H](CCO)c2ccc(Cl)cc2)CCN(c2ncnc3[nH]ccc23)CC1 [Capivasertib] + Cn1cnc2c(F)c(Nc3ccc(Br)cc3Cl)c(C(=O)NOCCO)cc21 [Selumetinib] (first compound max 10 µM, 7x7, partner max 10 µM)	0.0371
CN(CCO)CC[C@H](CSc1ccccc1)Nc1ccc(S(=O)(=O)NC(=O)c2ccc(N3CCC([C@@H](O)c4ccccc4-c4ccc(Cl)cc4)CC3)cc2)cc1S(=O)(=O)C(F)(F)F [AZD4320] + Cn1cnc2c(F)c(Nc3ccc(Br)cc3Cl)c(C(=O)NOCCO)cc21 [Selumetinib] (first compound max 1 µM, 7x7, partner max 3 µM)	0.0408
CC1(C)CCC(CN2CCN(c3ccc(C(=O)NS(=O)(=O)c4ccc(NCC5CCOCC5)c([N+](=O)[O-])c4)c(Oc4cnc5[nH]ccc5c4)c3)CC2)=C(c2ccc(Cl)cc2)C1 [Venetoclax] + C[C@@H]1COCCN1C2=NC(=NC(=C2)C3(CC3)[S@](=N)(=O)C)C4=C5C=CNC5=NC=C4 [AZD6738] (first compound max 1 µM, 7x7, partner max 10 µM)	0.007
